# Target: T1, human TREM2 (human) (UniProt Q9NZC2)
# T1 sequence (looked up): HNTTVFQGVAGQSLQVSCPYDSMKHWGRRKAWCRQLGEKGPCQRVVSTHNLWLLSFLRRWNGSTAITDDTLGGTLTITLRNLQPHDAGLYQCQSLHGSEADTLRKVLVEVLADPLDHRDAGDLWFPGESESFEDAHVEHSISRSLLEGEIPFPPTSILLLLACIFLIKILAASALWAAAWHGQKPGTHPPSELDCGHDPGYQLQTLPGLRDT
# Experiment: 1st screen, 10 nM Ab
Parameter: Binding Signal (fold over 6E7 parental antibody) (fold)
Express the result in fold but write the number alone.

Take a look at these entries with their results.
6E7 variant V25 (antibody, V domains shown) VH: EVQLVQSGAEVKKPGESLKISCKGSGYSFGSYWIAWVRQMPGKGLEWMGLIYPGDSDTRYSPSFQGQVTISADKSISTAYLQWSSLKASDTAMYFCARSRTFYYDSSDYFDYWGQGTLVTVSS VL: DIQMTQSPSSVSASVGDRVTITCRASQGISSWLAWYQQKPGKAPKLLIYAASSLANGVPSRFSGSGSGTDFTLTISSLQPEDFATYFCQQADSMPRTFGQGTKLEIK: 4.23
6E7 variant V63 (antibody, V domains shown) VH: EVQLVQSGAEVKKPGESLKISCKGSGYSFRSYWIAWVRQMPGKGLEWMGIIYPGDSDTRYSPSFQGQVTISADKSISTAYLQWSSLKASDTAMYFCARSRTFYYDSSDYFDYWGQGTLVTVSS VL: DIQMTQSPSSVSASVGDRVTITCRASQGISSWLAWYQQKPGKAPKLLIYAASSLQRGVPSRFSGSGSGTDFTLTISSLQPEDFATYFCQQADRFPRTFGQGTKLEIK: 3.76

## Input Name the reported Binding Signal (fold over 6E7 parental antibody) value associated with the binder 6E7 variant V62 (antibody, V domains shown) VH: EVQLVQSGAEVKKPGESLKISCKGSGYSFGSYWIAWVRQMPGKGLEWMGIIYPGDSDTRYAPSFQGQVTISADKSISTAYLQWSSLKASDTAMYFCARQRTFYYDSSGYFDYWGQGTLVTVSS VL: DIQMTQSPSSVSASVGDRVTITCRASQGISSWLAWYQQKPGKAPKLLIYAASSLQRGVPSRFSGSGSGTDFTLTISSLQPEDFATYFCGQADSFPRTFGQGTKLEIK
## Output 2.49
